# credit: paper PMC8162404

Kd values by entry
# Experimental System: Gal-1 (Homo sapiens, UniProt P09382)
# Construct: made in house; host or cells: E. coli BL21(DE3)
# Sequence (P09382 whole entry): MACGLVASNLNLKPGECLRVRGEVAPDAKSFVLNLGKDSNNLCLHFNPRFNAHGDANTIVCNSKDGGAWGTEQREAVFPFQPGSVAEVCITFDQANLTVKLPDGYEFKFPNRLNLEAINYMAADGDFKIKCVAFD
# Experimental Protocol: Competition pull-down with lactose
# Type: binding
# Condition Summary: H14 library; lactose 10 mM; read-out: Surface mapping KD (apparent), competition

Molecule | Kd [µM]
N=C(N)NCCC[C@@H](CC(=O)N[C@H]1CCCC[C@@H]1C(N)=O)NC(=O)[C@H]1CCCC[C@@H]1NC(=O)[C@H]1CCCC[C@@H]1NC(=O)C[C@H](Cc1ccccc1)NC(=O)[C@H]1CCCC[C@@H]1N [H14 FR] | 208
CC[C@H](C)[C@@H](CC(=O)N[C@H]1CCCC[C@@H]1C(N)=O)NC(=O)[C@H]1CCCC[C@@H]1NC(=O)[C@H]1CCCC[C@@H]1NC(=O)C[C@H](Cc1ccccc1)NC(=O)[C@H]1CCCC[C@@H]1N [H14 FI] | 164

###

# Experimental System: S100B (Homo sapiens)
# Construct: made in house; host or cells: Escherichia coli BL21(DE3)
# Sequence (P04271 whole entry): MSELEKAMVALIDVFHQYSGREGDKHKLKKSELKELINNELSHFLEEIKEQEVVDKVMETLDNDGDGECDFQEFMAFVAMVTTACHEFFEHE
# Experimental Protocol: Competition pull-down with native ligand RSK1 (689–735)
# Type: binding
# Condition Summary: H14 library; competitor peptide 200 µM; read-out: Surface mapping KD (apparent), competition
pKd: −log10 of the molar value.

Molecule | Experimental System | pKd
CSCC[C@@H](CC(=O)N[C@H]1CCCC[C@@H]1C(N)=O)NC(=O)[C@H]1CCCC[C@@H]1NC(=O)[C@H]1CCCC[C@@H]1NC(=O)C[C@H](Cc1ccccc1)NC(=O)[C@H]1CCCC[C@@H]1N [H14 FM] | S100B (Homo sapiens) | 3.45
NC(=O)[C@H]1CCCC[C@@H]1NC(=O)C[C@H](Cc1c[nH]c2ccccc12)NC(=O)[C@H]1CCCC[C@@H]1NC(=O)[C@H]1CCCC[C@@H]1NC(=O)C[C@H](Cc1c[nH]c2ccccc12)NC(=O)[C@H]1CCCC[C@@H]1N [H14 WW] | S100B (Homo sapiens) | 3.86
C[C@@H](O)[C@@H](CC(=O)N[C@H]1CCCC[C@@H]1C(N)=O)NC(=O)[C@H]1CCCC[C@@H]1NC(=O)[C@H]1CCCC[C@@H]1NC(=O)C[C@H](Cc1ccc(O)cc1)NC(=O)[C@H]1CCCC[C@@H]1N [H14 YT] | S100B (Homo sapiens) | 3.39
NC(=O)CC[C@@H](CC(=O)N[C@H]1CCCC[C@@H]1C(=O)N[C@H]1CCCC[C@@H]1C(=O)N[C@H](CC(=O)N[C@H]1CCCC[C@@H]1C(N)=O)Cc1ccccc1)NC(=O)[C@H]1CCCC[C@@H]1N [H14 QF] | S100B (Homo sapiens) | 3.37

###

# Experimental System: S100A4 (Homo sapiens, UniProt P26447)
# Construct: made in house; host or cells: Escherichia coli BL21(DE3)
# Sequence (P26447 whole entry): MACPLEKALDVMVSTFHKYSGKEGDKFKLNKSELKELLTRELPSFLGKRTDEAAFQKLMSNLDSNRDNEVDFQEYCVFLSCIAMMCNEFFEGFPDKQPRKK
# Experimental Protocol: Pull-down assay with immobilized protein and LSM libraries
# Type: binding
# Condition Summary: H12 library; 1:1 binding assumed; read-out: Surface mapping KD (apparent)
Kd values by entry

Molecule | Experimental System | Kd
CSCC[C@@H](CC(=O)N[C@H]1CCC[C@@H]1C(=O)N[C@H]1CCC[C@@H]1C(=O)N[C@H](CC(=O)N[C@H]1CCC[C@@H]1C(=O)N[C@H]1CCC[C@@H]1C(N)=O)Cc1c[nH]c2ccccc12)NC(=O)[C@H]1CCC[C@@H]1NC(=O)[C@H]1CCC[C@@H]1N [H12 MW] | S100A4 (Homo sapiens, UniProt P26447) | 170 µM
NCCCC[C@@H](CC(=O)N[C@H]1CCC[C@@H]1C(=O)N[C@H]1CCC[C@@H]1C(=O)N[C@H](CC(=O)N[C@H]1CCC[C@@H]1C(=O)N[C@H]1CCC[C@@H]1C(N)=O)Cc1ccccc1)NC(=O)[C@H]1CCC[C@@H]1NC(=O)[C@H]1CCC[C@@H]1N [H12 KF] | S100A4 (Homo sapiens, UniProt P26447) | 416 µM

###

pKd values by entry
# Experimental System: CaM (Bos taurus)
# Construct: made in house; host or cells: E. coli BL21 (DE3)
# Experimental Protocol: Pull-down assay with immobilized protein and LSM libraries
# Assay type: binding, bovine
# Condition Summary: H12 library; 1:2 stoichiometry assumed; read-out: Surface mapping KD (apparent)
pKd: −log10 of the molar value.

Molecular String | pKd
CC(C)C[C@@H](CC(=O)N[C@H]1CCC[C@@H]1C(=O)N[C@H]1CCC[C@@H]1C(N)=O)NC(=O)[C@H]1CCC[C@@H]1NC(=O)[C@H]1CCC[C@@H]1NC(=O)C[C@H](Cc1ccccc1)NC(=O)[C@H]1CCC[C@@H]1NC(=O)[C@H]1CCC[C@@H]1N | 3.69
CC(C)C[C@@H](CC(=O)N[C@H]1CCC[C@@H]1C(=O)N[C@H]1CCC[C@@H]1C(=O)N[C@H](CC(=O)N[C@H]1CCC[C@@H]1C(=O)N[C@H]1CCC[C@@H]1C(N)=O)Cc1ccc(O)cc1)NC(=O)[C@H]1CCC[C@@H]1NC(=O)[C@H]1CCC[C@@H]1N | 4.55
N=C(N)NCCC[C@@H](CC(=O)N[C@H]1CCC[C@@H]1C(=O)N[C@H]1CCC[C@@H]1C(=O)N[C@@H](CCCCN)CC(=O)N[C@H]1CCC[C@@H]1C(=O)N[C@H]1CCC[C@@H]1C(N)=O)NC(=O)[C@H]1CCC[C@@H]1NC(=O)[C@H]1CCC[C@@H]1N | 3.48
NC(=O)[C@H]1CCC[C@@H]1NC(=O)[C@H]1CCC[C@@H]1NC(=O)C[C@H](Cc1c[nH]c2ccccc12)NC(=O)[C@H]1CCC[C@@H]1NC(=O)[C@H]1CCC[C@@H]1NC(=O)C[C@H](Cc1ccc(O)cc1)NC(=O)[C@H]1CCC[C@@H]1NC(=O)[C@H]1CCC[C@@H]1N | 4.52
CC(C)[C@@H](CC(=O)N[C@H]1CCC[C@@H]1C(=O)N[C@H]1CCC[C@@H]1C(=O)N[C@H](CC(=O)N[C@H]1CCC[C@@H]1C(=O)N[C@H]1CCC[C@@H]1C(N)=O)Cc1c[nH]c2ccccc12)NC(=O)[C@H]1CCC[C@@H]1NC(=O)[C@H]1CCC[C@@H]1N | 4.25
NC(=O)CC[C@@H](CC(=O)N[C@H]1CCC[C@@H]1C(=O)N[C@H]1CCC[C@@H]1C(=O)N[C@@H](CCC(=O)O)CC(=O)N[C@H]1CCC[C@@H]1C(=O)N[C@H]1CCC[C@@H]1C(N)=O)NC(=O)[C@H]1CCC[C@@H]1NC(=O)[C@H]1CCC[C@@H]1N | 3.32
CC[C@H](C)[C@@H](CC(=O)N[C@H]1CCC[C@@H]1C(=O)N[C@H]1CCC[C@@H]1C(N)=O)NC(=O)[C@H]1CCC[C@@H]1NC(=O)[C@H]1CCC[C@@H]1NC(=O)C[C@H](Cc1c[nH]c2ccccc12)NC(=O)[C@H]1CCC[C@@H]1NC(=O)[C@H]1CCC[C@@H]1N | 3.87

###

pKd values by entry
# Experimental System: Gal-1 (Homo sapiens, UniProt P09382)
# Construct: made in house; host or cells: E. coli BL21(DE3)
# Experimental Protocol: Competition pull-down with lactose
# Format: binding
# Condition Summary: H14 library; lactose 10 mM; read-out: Surface mapping KD (apparent), competition
# Description: Interactions between the H14 helical LSMs and the targets were abundant, but safe recognition of the native PPI interfaces on the targets is a criterion of druggability. […] For highlighting the effect of the competitor on the binding fingerprints, KD ratios and the LSM replacement percentages were calculated and are represented as heat maps (see ESI, Fig. S7 ^†). […] To avoid overlooking interesting orthosteric weak binders, direct replacement levels were assessed (see ESI, Fig. S7 ^†). […]
pKd: −log10 of the molar value.

Molecule | pKd
CC(C)C[C@@H](CC(=O)N[C@H]1CCCC[C@@H]1C(=O)N[C@H]1CCCC[C@@H]1C(=O)N[C@H](CC(=O)N[C@H]1CCCC[C@@H]1C(N)=O)C(C)C)NC(=O)[C@H]1CCCC[C@@H]1N [H14 LV] | 3.89
N=C(N)NCCC[C@@H](CC(=O)N[C@H]1CCCC[C@@H]1C(N)=O)NC(=O)[C@H]1CCCC[C@@H]1NC(=O)[C@H]1CCCC[C@@H]1NC(=O)C[C@H](CO)NC(=O)[C@H]1CCCC[C@@H]1N [H14 SR] | 3.46
N=C(N)NCCC[C@@H](CC(=O)N[C@H]1CCCC[C@@H]1C(N)=O)NC(=O)[C@H]1CCCC[C@@H]1NC(=O)[C@H]1CCCC[C@@H]1NC(=O)C[C@H](CC(N)=O)NC(=O)[C@H]1CCCC[C@@H]1N [H14 NR] | 3.61
N=C(N)NCCC[C@@H](CC(=O)N[C@H]1CCCC[C@@H]1C(N)=O)NC(=O)[C@H]1CCCC[C@@H]1NC(=O)[C@H]1CCCC[C@@H]1NC(=O)C[C@H](CCC(N)=O)NC(=O)[C@H]1CCCC[C@@H]1N [H14 QR] | 3.57
C[C@@H](O)[C@@H](CC(=O)N[C@H]1CCCC[C@@H]1C(=O)N[C@H]1CCCC[C@@H]1C(=O)N[C@H](CC(=O)N[C@H]1CCCC[C@@H]1C(N)=O)Cc1ccc(O)cc1)NC(=O)[C@H]1CCCC[C@@H]1N [H14 TY] | 3.47
C[C@@H](CC(=O)N[C@H]1CCCC[C@@H]1C(N)=O)NC(=O)[C@H]1CCCC[C@@H]1NC(=O)[C@H]1CCCC[C@@H]1NC(=O)C[C@H](CCCCN)NC(=O)[C@H]1CCCC[C@@H]1N [H14 KA] | 3.33
CC[C@H](C)[C@@H](CC(=O)N[C@H]1CCCC[C@@H]1C(N)=O)NC(=O)[C@H]1CCCC[C@@H]1NC(=O)[C@H]1CCCC[C@@H]1NC(=O)C[C@H](CCSC)NC(=O)[C@H]1CCCC[C@@H]1N [H14 MI] | 3.63
CSCC[C@@H](CC(=O)N[C@H]1CCCC[C@@H]1C(N)=O)NC(=O)[C@H]1CCCC[C@@H]1NC(=O)[C@H]1CCCC[C@@H]1NC(=O)C[C@H](Cc1ccccc1)NC(=O)[C@H]1CCCC[C@@H]1N [H14 FM] | 3.60
NC(=O)[C@H]1CCCC[C@@H]1NC(=O)C[C@H](Cc1c[nH]c2ccccc12)NC(=O)[C@H]1CCCC[C@@H]1NC(=O)[C@H]1CCCC[C@@H]1NC(=O)C[C@H](CCC(=O)O)NC(=O)[C@H]1CCCC[C@@H]1N [H14 EW] | 3.34
CC(C)[C@@H](CC(=O)N[C@H]1CCCC[C@@H]1C(N)=O)NC(=O)[C@H]1CCCC[C@@H]1NC(=O)[C@H]1CCCC[C@@H]1NC(=O)C[C@H](CO)NC(=O)[C@H]1CCCC[C@@H]1N [H14 SV] | 3.32
C[C@@H](CC(=O)N[C@H]1CCCC[C@@H]1C(N)=O)NC(=O)[C@H]1CCCC[C@@H]1NC(=O)[C@H]1CCCC[C@@H]1NC(=O)C[C@H](CO)NC(=O)[C@H]1CCCC[C@@H]1N [H14 SA] | 3.36
NC(=O)C[C@@H](CC(=O)N[C@H]1CCCC[C@@H]1C(=O)N[C@H]1CCCC[C@@H]1C(=O)N[C@H](CC(=O)N[C@H]1CCCC[C@@H]1C(N)=O)Cc1ccccc1)NC(=O)[C@H]1CCCC[C@@H]1N [H14 NF] | 3.60
CC[C@H](C)[C@@H](CC(=O)N[C@H]1CCCC[C@@H]1C(N)=O)NC(=O)[C@H]1CCCC[C@@H]1NC(=O)[C@H]1CCCC[C@@H]1NC(=O)C[C@H](CCC(N)=O)NC(=O)[C@H]1CCCC[C@@H]1N [H14 QI] | 3.31
CSCC[C@@H](CC(=O)N[C@H]1CCCC[C@@H]1C(=O)N[C@H]1CCCC[C@@H]1C(=O)N[C@@H](CCCCN)CC(=O)N[C@H]1CCCC[C@@H]1C(N)=O)NC(=O)[C@H]1CCCC[C@@H]1N [H14 MK] | 3.83
CSCC[C@@H](CC(=O)N[C@H]1CCCC[C@@H]1C(=O)N[C@H]1CCCC[C@@H]1C(=O)N[C@H](CC(=O)N[C@H]1CCCC[C@@H]1C(N)=O)CC(C)C)NC(=O)[C@H]1CCCC[C@@H]1N [H14 ML] | 3.63
CSCC[C@@H](CC(=O)N[C@H]1CCCC[C@@H]1C(N)=O)NC(=O)[C@H]1CCCC[C@@H]1NC(=O)[C@H]1CCCC[C@@H]1NC(=O)C[C@H](CC(C)C)NC(=O)[C@H]1CCCC[C@@H]1N [H14 LM] | 3.48
CC(C)C[C@@H](CC(=O)N[C@H]1CCCC[C@@H]1C(N)=O)NC(=O)[C@H]1CCCC[C@@H]1NC(=O)[C@H]1CCCC[C@@H]1NC(=O)C[C@H](CC(N)=O)NC(=O)[C@H]1CCCC[C@@H]1N [H14 NL] | 3.47
N=C(N)NCCC[C@@H](CC(=O)N[C@H]1CCCC[C@@H]1C(=O)N[C@H]1CCCC[C@@H]1C(=O)N[C@@H](CCC(N)=O)CC(=O)N[C@H]1CCCC[C@@H]1C(N)=O)NC(=O)[C@H]1CCCC[C@@H]1N [H14 RQ] | 3.38
